folding stability dG values for the variants below.
B1: r11_951_TrROS_Hall (parent)
chain: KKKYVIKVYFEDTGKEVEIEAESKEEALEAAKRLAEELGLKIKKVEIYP

Variants of: B1
Experiment: folding stability dG (cDNA display proteolysis); higher = more stable
Conditions: PBS, room temperature
A number alone suffices; assume kcal/mol.

Here is how some variants turned out for folding stability dG.
{"columns": ["sequence_variant", "folding stability dG, kcal/mol"],
 "data": [
  ["E25P", 4.16],
  ["K1G", 4.64],
  ["E36A", 4.62],
  ["G14L", 4.25],
  ["T13M", 4.35],
  ["V45F", 4.48]
]}

variant `E36R` , folding stability dG observed: 4.91

variant `V5G` , folding stability dG observed: 3.95

variant `K24T` , folding stability dG observed: 4.57

variant `K3P` , folding stability dG observed: 4.49

variant `K32M` , folding stability dG observed: 4.68

variant `A35V` , folding stability dG observed: 4.06

variant `K1D` , folding stability dG observed: 4.22

variant `S23M` , folding stability dG observed: 3.83

variant `I42D` , folding stability dG observed: 2.38

variant `Y4M` , folding stability dG observed: 3.98

variant `K24P` , folding stability dG observed: 4.19

variant `Y48M` , folding stability dG observed: 4.4

variant `K43R` , folding stability dG observed: 4.64

variant `Y48I` , folding stability dG observed: 4.43

variant `A35C` , folding stability dG observed: 4.08

variant `K43D` , folding stability dG observed: 4.29
